- Run Parameters: in isopropanol, 308.15 K
Metric: solubility (mole fraction)
Keep it simple and answer with nothing but the number.

So what's the measured solubility (mole fraction) for this one? CCCOC(=O)c1cc(O)c(O)c(O)c1
0.314

----------
- Run Parameters: in ethyl acetate, 328.15 K
Metric: solubility (mole fraction)
Keep it simple and answer with nothing but the number.

So what's the measured solubility (mole fraction) for this one? CCCOC(=O)c1cc(O)c(O)c(O)c1
0.343

----------
- Run Parameters: in acetone, 303.15 K
Metric: solubility (mole fraction)
Keep it simple and answer with nothing but the number.

So what's the measured solubility (mole fraction) for this one? CCCOC(=O)c1cc(O)c(O)c(O)c1
0.33

----------
- Run Parameters: in n-propanol, 333.15 K
Metric: solubility (mole fraction)
Keep it simple and answer with nothing but the number.

So what's the measured solubility (mole fraction) for this one? CCCOC(=O)c1cc(O)c(O)c(O)c1
0.406

----------
- Run Parameters: in methyl acetate, 328.15 K
Metric: solubility (mole fraction)
Keep it simple and answer with nothing but the number.

So what's the measured solubility (mole fraction) for this one? CCCOC(=O)c1cc(O)c(O)c(O)c1
0.39

----------
- Run Parameters: in n-butanol, 323.15 K
Metric: solubility (mole fraction)
Keep it simple and answer with nothing but the number.

So what's the measured solubility (mole fraction) for this one? CCCOC(=O)c1cc(O)c(O)c(O)c1
0.356

----------
- Run Parameters: in n-propanol, 318.15 K
Metric: solubility (mole fraction)
Keep it simple and answer with nothing but the number.

So what's the measured solubility (mole fraction) for this one? CCCOC(=O)c1cc(O)c(O)c(O)c1
0.36

----------
- Run Parameters: in methanol, 293.15 K
Metric: solubility (mole fraction)
Keep it simple and answer with nothing but the number.

So what's the measured solubility (mole fraction) for this one? CCCOC(=O)c1cc(O)c(O)c(O)c1
0.226

----------
- Run Parameters: in ethanol, 333.15 K
Metric: solubility (mole fraction)
Keep it simple and answer with nothing but the number.

So what's the measured solubility (mole fraction) for this one? CCCOC(=O)c1cc(O)c(O)c(O)c1
0.334

----------
- Run Parameters: in ethyl acetate, 298.15 K
Metric: solubility (mole fraction)
Keep it simple and answer with nothing but the number.

So what's the measured solubility (mole fraction) for this one? CCCOC(=O)c1cc(O)c(O)c(O)c1
0.24

----------
- Run Parameters: in ethyl acetate, 303.15 K
Metric: solubility (mole fraction)
Keep it simple and answer with nothing but the number.

So what's the measured solubility (mole fraction) for this one? CCCOC(=O)c1cc(O)c(O)c(O)c1
0.258

----------
- Run Parameters: in methanol, 308.15 K
Metric: solubility (mole fraction)
Keep it simple and answer with nothing but the number.

So what's the measured solubility (mole fraction) for this one? CCCOC(=O)c1cc(O)c(O)c(O)c1
0.276

----------
- Run Parameters: in n-butanol, 293.15 K
Metric: solubility (mole fraction)
Keep it simple and answer with nothing but the number.

So what's the measured solubility (mole fraction) for this one? CCCOC(=O)c1cc(O)c(O)c(O)c1
0.243

----------
- Run Parameters: in isobutanol, 313.15 K
Metric: solubility (mole fraction)
Keep it simple and answer with nothing but the number.

So what's the measured solubility (mole fraction) for this one? CCCOC(=O)c1cc(O)c(O)c(O)c1
0.272

----------
- Run Parameters: in n-butanol, 308.15 K
Metric: solubility (mole fraction)
Keep it simple and answer with nothing but the number.

So what's the measured solubility (mole fraction) for this one? CCCOC(=O)c1cc(O)c(O)c(O)c1
0.293

----------
- Run Parameters: in methyl acetate, 308.15 K
Metric: solubility (mole fraction)
Keep it simple and answer with nothing but the number.

So what's the measured solubility (mole fraction) for this one? CCCOC(=O)c1cc(O)c(O)c(O)c1
0.306

----------
- Run Parameters: in n-propanol, 298.15 K
Metric: solubility (mole fraction)

So what's the measured solubility (mole fraction) for this one? CCCOC(=O)c1cc(O)c(O)c(O)c1
0.283

----------
- Run Parameters: in ethanol, 318.15 K
Metric: solubility (mole fraction)
Keep it simple and answer with nothing but the number.

So what's the measured solubility (mole fraction) for this one? CCCOC(=O)c1cc(O)c(O)c(O)c1
0.288

----------
- Run Parameters: in ethanol, 298.15 K
Metric: solubility (mole fraction)
Keep it simple and answer with nothing but the number.

So what's the measured solubility (mole fraction) for this one? CCCOC(=O)c1cc(O)c(O)c(O)c1
0.201

----------
- Run Parameters: in methanol, 303.15 K
Metric: solubility (mole fraction)
Keep it simple and answer with nothing but the number.

So what's the measured solubility (mole fraction) for this one? CCCOC(=O)c1cc(O)c(O)c(O)c1
0.258

----------
- Run Parameters: in acetone, 293.15 K
Metric: solubility (mole fraction)

So what's the measured solubility (mole fraction) for this one? CCCOC(=O)c1cc(O)c(O)c(O)c1
0.291

----------
- Run Parameters: in n-butanol, 303.15 K
Metric: solubility (mole fraction)
Keep it simple and answer with nothing but the number.

So what's the measured solubility (mole fraction) for this one? CCCOC(=O)c1cc(O)c(O)c(O)c1
0.275

----------
- Run Parameters: in methyl acetate, 333.15 K
Metric: solubility (mole fraction)
Keep it simple and answer with nothing but the number.

So what's the measured solubility (mole fraction) for this one? CCCOC(=O)c1cc(O)c(O)c(O)c1
0.402

----------
- Run Parameters: in methyl acetate, 303.15 K
Metric: solubility (mole fraction)
Keep it simple and answer with nothing but the number.

So what's the measured solubility (mole fraction) for this one? CCCOC(=O)c1cc(O)c(O)c(O)c1
0.285

----------
- Run Parameters: in n-propanol, 313.15 K
Metric: solubility (mole fraction)
Keep it simple and answer with nothing but the number.

So what's the measured solubility (mole fraction) for this one? CCCOC(=O)c1cc(O)c(O)c(O)c1
0.34

----------
- Run Parameters: in methanol, 313.15 K
Metric: solubility (mole fraction)
Keep it simple and answer with nothing but the number.

So what's the measured solubility (mole fraction) for this one? CCCOC(=O)c1cc(O)c(O)c(O)c1
0.295

----------
- Run Parameters: in acetone, 323.15 K
Metric: solubility (mole fraction)
Keep it simple and answer with nothing but the number.

So what's the measured solubility (mole fraction) for this one? CCCOC(=O)c1cc(O)c(O)c(O)c1
0.404

----------
- Run Parameters: in ethyl acetate, 333.15 K
Metric: solubility (mole fraction)

So what's the measured solubility (mole fraction) for this one? CCCOC(=O)c1cc(O)c(O)c(O)c1
0.353

----------
- Run Parameters: in isobutanol, 333.15 K
Metric: solubility (mole fraction)
Keep it simple and answer with nothing but the number.

So what's the measured solubility (mole fraction) for this one? CCCOC(=O)c1cc(O)c(O)c(O)c1
0.344

----------
- Run Parameters: in ethanol, 328.15 K
Metric: solubility (mole fraction)
Keep it simple and answer with nothing but the number.

So what's the measured solubility (mole fraction) for this one? CCCOC(=O)c1cc(O)c(O)c(O)c1
0.323

----------
- Run Parameters: in methyl acetate, 318.15 K
Metric: solubility (mole fraction)
Keep it simple and answer with nothing but the number.

So what's the measured solubility (mole fraction) for this one? CCCOC(=O)c1cc(O)c(O)c(O)c1
0.351

----------
- Run Parameters: in acetone, 313.15 K
Metric: solubility (mole fraction)
Keep it simple and answer with nothing but the number.

So what's the measured solubility (mole fraction) for this one? CCCOC(=O)c1cc(O)c(O)c(O)c1
0.369

----------
- Run Parameters: in isobutanol, 318.15 K
Metric: solubility (mole fraction)
Keep it simple and answer with nothing but the number.

So what's the measured solubility (mole fraction) for this one? CCCOC(=O)c1cc(O)c(O)c(O)c1
0.295

----------
- Run Parameters: in methanol, 298.15 K
Metric: solubility (mole fraction)

So what's the measured solubility (mole fraction) for this one? CCCOC(=O)c1cc(O)c(O)c(O)c1
0.242

----------
- Run Parameters: in n-butanol, 328.15 K
Metric: solubility (mole fraction)

So what's the measured solubility (mole fraction) for this one? CCCOC(=O)c1cc(O)c(O)c(O)c1
0.368

----------
- Run Parameters: in methyl acetate, 323.15 K
Metric: solubility (mole fraction)
Keep it simple and answer with nothing but the number.

So what's the measured solubility (mole fraction) for this one? CCCOC(=O)c1cc(O)c(O)c(O)c1
0.375

----------
- Run Parameters: in ethanol, 293.15 K
Metric: solubility (mole fraction)
Keep it simple and answer with nothing but the number.

So what's the measured solubility (mole fraction) for this one? CCCOC(=O)c1cc(O)c(O)c(O)c1
0.182

----------
- Run Parameters: in n-propanol, 323.15 K
Metric: solubility (mole fraction)
Keep it simple and answer with nothing but the number.

So what's the measured solubility (mole fraction) for this one? CCCOC(=O)c1cc(O)c(O)c(O)c1
0.382

----------
- Run Parameters: in methanol, 323.15 K
Metric: solubility (mole fraction)

So what's the measured solubility (mole fraction) for this one? CCCOC(=O)c1cc(O)c(O)c(O)c1
0.339
